biological target: T1, human CLDN18.2 (human); assay: FACS, NUGC-4 cells (natural CLDN18.2)
T1 construct: also called claudin18.2
endpoint-label: EC50
Returns: string containing the numeric result and its unit.

{"binder": "humanized antibody hz40F6-2.3 (antibody, human IgG1, kappa, V domains shown) VH: QVQLVESGGGVVQPGRSLRLSCAASGFTLTSYGVYWVRQAPGKGLEWVAVVWAGGNTNYADALKGRFTISKDNSKSTLYLQMNSLRAEDTAVYYCARDRGRLLAMDYWGQGTLVTVSS VL: DIVMTQSPDSLAVSLGERATINCKSSQSLLNSGNQKNYLAWYQQKPGQPPKLLIYGASTRESGVPDRFSGSGSGTDFTLTISSLQAEDVAVYYCQNDYFFPFTFGQGTKVEIKR", "test-value": "16.2 nM"}

Let us examine a further case.
Entry under review: humanized antibody hz40F6-2.4 (antibody, human IgG1, kappa, V domains shown) VH: QVQLVESGGGVVQPGRSLRLSCTVSGFTLTSYGVYWVRQAPGKGLEWVAVVWAGGNTNYNSALKGRFTISKDNSKSTLYLQMNSLRAEDTAVYYCARDRGRLLAMDYWGQGTLVTVSS VL: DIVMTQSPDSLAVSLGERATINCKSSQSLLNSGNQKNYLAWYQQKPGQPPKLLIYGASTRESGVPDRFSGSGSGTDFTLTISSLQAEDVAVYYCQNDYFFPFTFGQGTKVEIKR . Reported EC50?
13.3 nM
